Reported binding signal ratio to isotype control (11 nM) by item:
- TEST TARGET: endogenously expressed human MSR1 on PMA-treated THP-1 cells (human) (UniProt P21757)
- Sequence (P21757 whole entry): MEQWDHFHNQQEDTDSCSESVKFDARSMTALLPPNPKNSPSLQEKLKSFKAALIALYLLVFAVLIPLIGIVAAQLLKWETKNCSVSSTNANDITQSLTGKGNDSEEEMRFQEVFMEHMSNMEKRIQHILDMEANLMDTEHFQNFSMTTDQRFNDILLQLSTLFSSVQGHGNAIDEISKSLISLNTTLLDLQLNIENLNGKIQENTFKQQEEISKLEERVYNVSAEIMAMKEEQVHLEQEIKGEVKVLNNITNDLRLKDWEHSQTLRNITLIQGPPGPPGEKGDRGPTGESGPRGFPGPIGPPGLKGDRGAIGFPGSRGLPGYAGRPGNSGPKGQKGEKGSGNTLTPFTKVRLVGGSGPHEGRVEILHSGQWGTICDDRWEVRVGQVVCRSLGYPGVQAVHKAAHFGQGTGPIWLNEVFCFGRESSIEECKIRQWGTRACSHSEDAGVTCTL
- ASSAY REMARKS: ECL cell binding, PMA-treated THP-1
Number only, in fold; omit the unit.

Worked examples follow.
| BINDER | ENDPOINT VALUE |
| --- | --- |
| H1H27729P-N297Q (antibody, human IgG1, V domains shown) VH: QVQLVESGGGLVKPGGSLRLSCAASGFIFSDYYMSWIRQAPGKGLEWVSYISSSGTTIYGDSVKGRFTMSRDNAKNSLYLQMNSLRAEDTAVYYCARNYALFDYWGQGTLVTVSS VL: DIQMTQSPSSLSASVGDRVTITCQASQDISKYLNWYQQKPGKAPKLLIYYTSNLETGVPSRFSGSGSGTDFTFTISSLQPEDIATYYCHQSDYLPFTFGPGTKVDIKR | 8 |
| H1H21234N (antibody, human IgG1, V domains shown) VH: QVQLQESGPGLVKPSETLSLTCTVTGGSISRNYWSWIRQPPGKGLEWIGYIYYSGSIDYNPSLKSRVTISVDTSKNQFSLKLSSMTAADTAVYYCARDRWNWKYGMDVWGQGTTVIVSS VL: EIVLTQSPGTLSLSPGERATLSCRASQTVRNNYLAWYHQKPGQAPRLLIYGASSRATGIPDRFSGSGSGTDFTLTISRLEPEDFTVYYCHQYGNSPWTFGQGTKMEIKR | 18 |

Note: attention shifts to another entry.
So what does the record say about binding signal ratio to isotype control (11 nM) for H1H27739P-N297Q (antibody, human IgG1, V domains shown) VH: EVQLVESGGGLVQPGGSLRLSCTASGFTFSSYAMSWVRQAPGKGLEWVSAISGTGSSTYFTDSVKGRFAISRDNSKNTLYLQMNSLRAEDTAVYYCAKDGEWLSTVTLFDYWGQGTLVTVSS VL: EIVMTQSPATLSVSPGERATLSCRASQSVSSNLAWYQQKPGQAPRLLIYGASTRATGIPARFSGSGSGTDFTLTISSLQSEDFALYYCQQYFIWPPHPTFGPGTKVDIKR ?
9

Hello, the source for this data is patent US20200368361A1, in case you need it.
